TARGET_DESC: T1, purified human activated C1s protein, two-chain form (Homo sapiens, UniProt P09871 16-688)
T1 construct: Also used here for C1s acting in human serum assays; also called human C1s; active C1s
T1 sequence: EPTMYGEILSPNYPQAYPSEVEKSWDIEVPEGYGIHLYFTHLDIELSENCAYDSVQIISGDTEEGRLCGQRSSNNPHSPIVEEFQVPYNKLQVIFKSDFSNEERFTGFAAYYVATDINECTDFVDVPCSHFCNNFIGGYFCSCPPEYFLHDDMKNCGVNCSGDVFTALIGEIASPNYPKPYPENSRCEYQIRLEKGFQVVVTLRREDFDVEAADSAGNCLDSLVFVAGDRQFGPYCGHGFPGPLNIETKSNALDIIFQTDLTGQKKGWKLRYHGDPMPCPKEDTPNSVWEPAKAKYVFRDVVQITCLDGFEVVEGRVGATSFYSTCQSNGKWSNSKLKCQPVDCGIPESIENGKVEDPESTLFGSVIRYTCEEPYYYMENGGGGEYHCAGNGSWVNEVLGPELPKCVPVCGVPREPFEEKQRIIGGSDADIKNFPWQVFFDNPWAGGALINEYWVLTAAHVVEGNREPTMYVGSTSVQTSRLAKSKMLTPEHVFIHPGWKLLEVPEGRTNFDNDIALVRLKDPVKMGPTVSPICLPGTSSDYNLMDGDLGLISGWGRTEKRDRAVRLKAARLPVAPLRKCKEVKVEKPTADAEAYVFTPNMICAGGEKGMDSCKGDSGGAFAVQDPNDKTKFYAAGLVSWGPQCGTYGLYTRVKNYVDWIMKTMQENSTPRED
EXPERIMENTAL_PROTOCOL: kinetic binding measurement, method not stated; Table 9, activated C1s
ENDPOINT_NAME: koff
Answer format: value, then unit.

Please review the following examples before continuing.
{"BINDER": "VH4/Vk1 (antibody, V domains shown, member of group m7; also called VH4/Vκ1; VH variant 4 + Vk variant 1) VH: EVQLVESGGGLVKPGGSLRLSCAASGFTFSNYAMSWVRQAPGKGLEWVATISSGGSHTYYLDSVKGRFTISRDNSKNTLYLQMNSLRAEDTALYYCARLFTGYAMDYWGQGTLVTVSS VL: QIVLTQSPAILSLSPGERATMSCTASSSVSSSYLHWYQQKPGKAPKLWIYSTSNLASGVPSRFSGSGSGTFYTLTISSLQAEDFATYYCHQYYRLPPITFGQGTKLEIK", "koff": "0.000271 s⁻¹"}
{"BINDER": "VH2/Vk3 (antibody, V domains shown, member of group m7; also called VH2/Vκ3; VH variant 2 + Vk variant 3) VH: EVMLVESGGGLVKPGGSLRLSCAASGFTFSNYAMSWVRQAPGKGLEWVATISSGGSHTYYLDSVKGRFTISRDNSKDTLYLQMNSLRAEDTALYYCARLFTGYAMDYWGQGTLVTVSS VL: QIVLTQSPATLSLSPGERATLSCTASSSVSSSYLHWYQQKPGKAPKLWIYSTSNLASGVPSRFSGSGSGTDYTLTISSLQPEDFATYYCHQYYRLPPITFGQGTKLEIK", "koff": "0.000281 s⁻¹"}
{"BINDER": "VH2/Vk2 (antibody, V domains shown, member of group m7; also called VH2/Vκ2; VH variant 2 + Vk variant 2) VH: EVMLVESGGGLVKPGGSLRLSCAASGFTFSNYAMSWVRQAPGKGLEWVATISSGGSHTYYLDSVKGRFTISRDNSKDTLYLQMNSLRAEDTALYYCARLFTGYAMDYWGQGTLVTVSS VL: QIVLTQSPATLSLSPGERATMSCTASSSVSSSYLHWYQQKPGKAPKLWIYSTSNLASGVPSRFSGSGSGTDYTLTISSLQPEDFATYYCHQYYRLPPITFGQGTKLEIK", "koff": "0.00028 s⁻¹"}
{"BINDER": "VH2/Vk1 (antibody, V domains shown, member of group m7; also called VH2/Vκ1; VH variant 2 + Vk variant 1) VH: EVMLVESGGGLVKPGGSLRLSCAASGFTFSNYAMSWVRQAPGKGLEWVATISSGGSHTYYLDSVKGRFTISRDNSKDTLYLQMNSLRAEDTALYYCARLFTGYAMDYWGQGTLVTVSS VL: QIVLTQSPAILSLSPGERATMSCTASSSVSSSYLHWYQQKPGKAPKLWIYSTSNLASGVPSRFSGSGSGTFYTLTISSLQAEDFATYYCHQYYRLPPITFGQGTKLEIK", "koff": "0.000274 s⁻¹"}
{"BINDER": "VH1/Vk2 (antibody, V domains shown, member of group m7; also called VH1/Vκ2; VH variant 1 + Vk variant 2) VH: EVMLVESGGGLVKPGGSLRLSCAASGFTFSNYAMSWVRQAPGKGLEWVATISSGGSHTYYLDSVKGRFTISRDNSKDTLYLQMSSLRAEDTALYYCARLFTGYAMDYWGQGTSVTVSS VL: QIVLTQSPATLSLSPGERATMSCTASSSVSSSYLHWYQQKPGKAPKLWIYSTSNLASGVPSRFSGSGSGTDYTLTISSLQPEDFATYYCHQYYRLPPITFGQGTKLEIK", "koff": "0.000274 s⁻¹"}

State the recorded koff for this entry: VH3/Vk2 (antibody, V domains shown, member of group m7; also called VH3/Vκ2; VH variant 3 + Vk variant 2) VH: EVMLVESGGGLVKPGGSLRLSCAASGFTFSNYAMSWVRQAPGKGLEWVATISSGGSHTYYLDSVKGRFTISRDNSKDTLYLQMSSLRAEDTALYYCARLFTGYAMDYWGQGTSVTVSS VL: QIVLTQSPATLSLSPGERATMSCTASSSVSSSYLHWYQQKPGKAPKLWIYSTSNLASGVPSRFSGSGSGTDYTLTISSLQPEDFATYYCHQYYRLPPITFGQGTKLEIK
0.000311 s⁻¹

State the recorded koff for this entry: VH3/Vk1 (antibody, V domains shown, member of group m7; also called VH3/Vκ1; VH variant 3 + Vk variant 1) VH: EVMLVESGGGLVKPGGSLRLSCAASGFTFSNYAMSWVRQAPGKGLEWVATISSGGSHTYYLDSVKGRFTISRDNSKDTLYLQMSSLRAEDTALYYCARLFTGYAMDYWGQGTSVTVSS VL: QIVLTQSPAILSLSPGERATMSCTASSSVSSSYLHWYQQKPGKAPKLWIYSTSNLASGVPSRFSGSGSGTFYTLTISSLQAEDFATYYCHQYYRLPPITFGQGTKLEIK
0.000254 s⁻¹

State the recorded koff for this entry: VH4/Vk2 (antibody, V domains shown, member of group m7; also called VH4/Vκ2; VH variant 4 + Vk variant 2) VH: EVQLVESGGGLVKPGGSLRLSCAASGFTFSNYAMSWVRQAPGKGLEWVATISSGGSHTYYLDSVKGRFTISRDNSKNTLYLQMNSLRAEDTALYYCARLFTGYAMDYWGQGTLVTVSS VL: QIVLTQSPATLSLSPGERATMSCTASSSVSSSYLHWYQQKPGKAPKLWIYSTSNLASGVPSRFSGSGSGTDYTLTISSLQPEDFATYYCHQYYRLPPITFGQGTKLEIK
0.000264 s⁻¹

State the recorded koff for this entry: VH1/Vk3 (antibody, V domains shown, member of group m7; also called VH1/Vκ3; VH variant 1 + Vk variant 3) VH: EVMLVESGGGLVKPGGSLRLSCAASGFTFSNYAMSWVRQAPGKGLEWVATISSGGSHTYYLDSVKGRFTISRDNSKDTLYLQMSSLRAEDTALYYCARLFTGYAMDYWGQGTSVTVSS VL: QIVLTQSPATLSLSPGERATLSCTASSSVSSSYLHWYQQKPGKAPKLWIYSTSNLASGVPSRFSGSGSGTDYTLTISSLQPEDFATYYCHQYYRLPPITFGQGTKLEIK
0.000343 s⁻¹
